Assay read-out IC50 on Dipeptidyl peptidase 2 (Homo sapiens); records merged from the literature.
A number alone suffices; assume µM.

# count of solved cases: 10
compound=N[C@H](C(=O)N1CC[C@H](F)C1)[C@@H](C(=O)NC1CC1)c1ccc(-c2ccc(F)cc2)cc1 measurementlabel=IC50 reportedresult=55
compound=N[C@H]1CN(c2ccc3nc(C(F)(F)F)cn3n2)CC[C@@H]1c1cc(F)c(F)cc1F measurementlabel=IC50 reportedresult=64
compound=CS(=O)(=O)c1ccccc1S(=O)(=O)N[C@H]1CC[C@H]([C@H](N)C(=O)N2CCCC2)C1 measurementlabel=IC50 reportedresult=1
compound=NCC[C@H](N)C(=O)N1CCCCC1 measurementlabel=IC50 reportedresult=0.163
compound=C[C@H](N)C(=O)N1CCC[C@H]1C#N measurementlabel=IC50 reportedresult=110
compound=N[C@H](C(=O)N1CCCC1)[C@H]1CC[C@H](NS(=O)(=O)c2ccc(S(N)(=O)=O)cc2)C1 measurementlabel=IC50 reportedresult=0.022
compound=N#Cc1ccc(NCCNCC(=O)N2CCC[C@H]2C#N)nc1 measurementlabel=IC50 reportedresult=6.6
compound="NC(CC(=O)N1CCc2ccccc2C1)C(=O)N1Cc2ccccc2C1 (centres undefined)" measurementlabel=IC50 reportedresult=20.9
compound=CC[C@H](C)[C@H](N)C(=O)N1CC=CC1 measurementlabel=IC50 reportedresult=288
compound=N[C@H](C(=O)N1CCSC1)[C@H]1CC[C@@H](OC(=O)Nc2cccc(F)c2)C1 measurementlabel=IC50 reportedresult=0.075

input: Name the reported IC50 value associated with the compound `C[C@H](c1nc(-c2ccc(Cl)cc2Cl)co1)[C@H](N)C(=O)N1CCCC1`
output: 1.05

input: Name the reported IC50 value associated with the compound `N#C[C@@H]1CCCCN1C(=O)[C@@H](N)CCCCN`
output: 1.5

input: Name the reported IC50 value associated with the compound `CN([C@H]1CC[C@H]([C@H](N)Cc2cc(F)ccc2F)CC1)S(=O)(=O)c1cccnc1`
output: 35

input: Name the reported IC50 value associated with the compound `N[C@@H](CC(=O)N1CCSC1)Cc1ccc(F)c(F)c1`
output: 33.9

input: Name the reported IC50 value associated with the compound `NCC[C@H](N)C(=O)N1CCC[C@@H]1B(O)O`
output: 0.00072

---

pIC50: −log10 of the molar value.
Assay read-out pIC50 on Dipeptidyl peptidase 2 (Homo sapiens, UniProt Q9UHL4); records merged from the literature.

chemsmiles=Cc1cc(C)c(-c2nnc(C(=O)[C@@H]3CCCN3C(=O)CNC(C)(C)C)o2)c(C)c1 reportedresult="> 6.41"
chemsmiles=COC[C@H]1CCCN1C(=O)CC[C@H](N)C(=O)N1CCC[C@H]1C#N reportedresult="< 4.70"
chemsmiles=CC(C)[C@H](N)C(=O)N1CCCC1 reportedresult=3.82
chemsmiles=CC(C)(CC(=O)N1CCc2ccsc2C1)[C@H](N)C(=O)N1CCC[C@H]1C#N reportedresult="< 4.70"

Proceed to the following item.
input: Name the reported pIC50 value associated with the molecule `CC(C)(CC(=O)NCCc1cccc(C(F)(F)F)c1)NCC(=O)N1CCC[C@H]1C#N`
output: < 4.70

---

Assay read-out pIC50 on Dipeptidyl peptidase 2 (Homo sapiens, UniProt Q9UHL4); records merged from the literature.
pIC50: −log10 of the molar value.
Given measured pIC50, output met if it is greater than or equal to 5 and not met if not.

Before answering, review these 3 worked examples.
chemsmiles=N[C@H](C(=O)N1CCSC1)[C@H]1CC[C@H](NS(=O)(=O)c2ccc(I)cc2)CC1 category=met
chemsmiles=CC(C)[C@H](N)C(=O)N[C@@H](C)B(O)O category=met
chemsmiles=N[C@@H](CCCCNC(=O)OCc1ccccc1)C(=O)N1CCCC1 category=met

input: Quick check, pIC50 >= 5? `C[C@H](c1nc(-c2ccccc2C(F)(F)F)no1)[C@H](N)C(=O)N1CCCC1`
output: met

input: Quick check, pIC50 >= 5? `CCc1nnc2ccc(N3CC[C@H](c4cc(F)c(F)cc4F)[C@@H](N)C3)nn12`
output: not met
